Biological target: PRMT5 (Homo sapiens)
Construct: purchased Viva (custom protein)
Sequence (O14744 whole entry): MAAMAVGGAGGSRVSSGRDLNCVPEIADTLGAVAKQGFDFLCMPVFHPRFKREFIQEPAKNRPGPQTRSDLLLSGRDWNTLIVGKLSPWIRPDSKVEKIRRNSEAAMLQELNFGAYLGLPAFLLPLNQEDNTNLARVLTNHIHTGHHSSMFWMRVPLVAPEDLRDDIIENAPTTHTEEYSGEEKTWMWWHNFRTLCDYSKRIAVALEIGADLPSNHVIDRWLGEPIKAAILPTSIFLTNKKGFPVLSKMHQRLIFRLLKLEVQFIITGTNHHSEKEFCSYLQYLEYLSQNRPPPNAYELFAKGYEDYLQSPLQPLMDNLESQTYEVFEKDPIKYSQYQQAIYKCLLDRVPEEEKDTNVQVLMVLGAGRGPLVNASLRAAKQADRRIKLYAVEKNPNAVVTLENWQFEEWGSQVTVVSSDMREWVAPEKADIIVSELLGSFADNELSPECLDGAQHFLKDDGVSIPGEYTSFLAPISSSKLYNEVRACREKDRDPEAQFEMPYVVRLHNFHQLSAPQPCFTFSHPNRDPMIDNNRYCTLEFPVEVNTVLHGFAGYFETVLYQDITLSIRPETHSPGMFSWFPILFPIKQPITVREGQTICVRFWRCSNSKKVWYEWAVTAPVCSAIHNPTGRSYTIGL
Sequence (Q9BQA1 whole entry partner): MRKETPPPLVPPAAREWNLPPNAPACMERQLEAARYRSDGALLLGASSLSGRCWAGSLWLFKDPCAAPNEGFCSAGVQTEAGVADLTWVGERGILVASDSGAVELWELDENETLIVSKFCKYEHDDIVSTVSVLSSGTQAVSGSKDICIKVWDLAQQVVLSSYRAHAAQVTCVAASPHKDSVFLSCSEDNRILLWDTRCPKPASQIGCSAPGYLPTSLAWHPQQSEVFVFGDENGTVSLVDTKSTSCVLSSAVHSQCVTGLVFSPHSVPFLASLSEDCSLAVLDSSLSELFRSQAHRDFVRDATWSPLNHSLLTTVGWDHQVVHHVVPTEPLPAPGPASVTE
Experiment: PRMT5 biochemical IC50 assay with no cofactor
Conditions: PRMT5, no cofactor; read-out: No Cofactor/rel IC50
pIC50: −log10 of the molar value.
Result type: pIC50

In the examples that follow, each entry is paired with its recorded pIC50.
• CCN1CCC(c2nc3cc([C@H]4CC[C@H](C)CN4C(=O)C(=O)Nc4cnc(OC)c(C(N)=O)c4)ccc3s2)CC1 = > 7.30
• C[C@H]1CC[C@H](c2ccc(N[C@H](C)C(=O)N(C)C)cc2)N(C(=O)C(=O)Nc2cncc(C(N)=O)c2)C1 (racemic) = 6.30 to 7.30

COc1ncc(NC(=O)C(=O)N2C[C@@H](C)CC[C@@H]2c2cc(Cl)cc(Cl)c2)cc1C(N)=O (single isomer, unassigned) has a reported pIC50 of 6.30 to 7.30

* * *

This listing pairs compounds with measured IC50.
Target: PRMT5 (Homo sapiens)
Construct: purchased Viva (custom protein)
Test: PRMT5 biochemical IC50 assay with SAM as cofactor
Details: PRMT5, SAM as cofactor; read-out: SAM IC50

- Cc1cnn(-c2ccc([C@@H]3CC[C@@H](C)CN3C(=O)C(=O)Nc3cncc(C(N)=O)c3)cc2)c1 (racemic): 50 to 500 nM
- Cc1cc(NC(=O)C(=O)N2C[C@@H](C)CC[C@@H]2c2cccc(O)c2)cnc1N (racemic): 50 to 500 nM
- COc1cc(OC)cc([C@@H]2CC[C@@H](C)CN2C(=O)C(=O)Nc2cncc(C(N)=O)c2)c1 (racemic): > 500 nM
- C[C@@H]1CC[C@@H](c2ccc(OC3CCOC3)cc2)N(C(=O)C(=O)Nc2cncc(C(N)=O)c2)C1 (mixture of isomers): 50 to 500 nM
- Cc1cc(NC(=O)C(=O)N2C[C@@H](C)CC[C@@H]2c2ccncc2)cnc1N (single isomer, unassigned): > 500 nM

Reported PRMT5 (Homo sapiens) IC50 for item Cc1cc([C@@H]2CC[C@@H](C)CN2C(=O)C(=O)Nc2cncc(C(N)=O)c2)ccc1Cl (racemic) was 50 to 500 nM

Reported PRMT5 (Homo sapiens) IC50 for item Cc1cc(NC(=O)C(=O)N2C[C@@H](C)CC[C@@H]2c2ccc(-c3cn[nH]c3)cc2)cnc1N (single isomer, unassigned) was > 500 nM

* * *

This listing pairs compounds with measured IC50.
Molecular target: PRMT5 (Homo sapiens)
Construct: purchased Viva (custom protein)
Test: PRMT5 biochemical IC50 assay with MTA as cofactor
Details: PRMT5, MTA as cofactor; read-out: MTA IC50

In the examples that follow, each entry is paired with its recorded IC50.
• C[C@@H]1CC[C@@H](c2cccc(Br)c2)N(C(=O)C(=O)Nc2cncc(C(N)=O)c2)C1 (racemic) = 50 to 500 nM
• C[C@@H]1CC[C@@H](c2ccc(F)c(F)c2)N(C(=O)C(=O)Nc2cncc(C(N)=O)c2)C1 (racemic) [Compound 263] = < 50 nM
• COc1ncc(NC(=O)C(=O)N2C[C@@H](C)CC[C@@H]2c2ccc3c(c2)CCC(=O)N3)cc1C(N)=O (single isomer, unassigned) = > 500 nM

Below: the item to evaluate.
Reported PRMT5 (Homo sapiens) IC50 for item Cc1cc(NC(=O)C(=O)N2C[C@@H](C)CC[C@@H]2c2ccc3sc([C@@H]4CCN(C)C(C)(C)C4)nc3c2)cnc1C was < 50 nM
